// values below are reported Difference
System: NCI-H292 lung cancer cells
assay.comment: FDA drug screening, complete media vs cholesterol-free media without statin (TABLE 1)
Assay type: cell-based, human
condition.parameters: Complete minus Cholesterol-free; >0 enhanced anti-cancer activity, about 0 neutral, <0 antagonist
Counter-ions that a name gives are not always drawn.
Note: the reply should be a number with no unit written.

NC(=O)c1nc(F)c[nH]c1=O [Favipiravir]
−0.06
CN1C2CCCC1CC(NC(=O)c1nn(C)c3ccccc13)C2 (stereo not drawn) [Granisetron (Hydrochloride)]
−0.26
CCS(=O)(=O)N1CC(CC#N)(n2cc(-c3ncnc4[nH]ccc34)cn2)C1 [Baricitinib]
−0.22

Sample Nc1nc2ccc(OC(F)(F)F)cc2s1 [Riluzole] ; Difference observed: 0.02

Difference recorded for this molecule, CCCNCC(O)COc1ccccc1C(=O)CCc1ccccc1 (stereo not drawn) [Propafenone (hydrochloride)] , is 0.02

Measured Difference, CC#CCn1c(N2CCC[C@@H](N)C2)nc2c1c(=O)n(Cc1nc(C)c3ccccc3n1)c(=O)n2C [Linagliptin] : −0.23

The molecule CC1(O)CCC(C(C)(C)O)CC1 (stereo not drawn) [Terpin (hydrate)] showed Difference equal to 0.06

For this molecule ( Clc1ccc(CO/N=C(\Cn2ccnc2)c2ccc(Cl)cc2Cl)c(Cl)c1 [Oxiconazole nitrate] ), measured Difference is 0.00

For CC(C)(C)N.CCC[C@H](N[C@@H](C)C(=O)N1[C@H](C(=O)O)C[C@@H]2CCCC[C@@H]21)C(=O)OCC [Perindopril (erbumine)] the molecule record lists Difference as −0.25

Looking up C#C[C@]1(O)CC[C@H]2[C@@H]3CCC4=CC(=O)CC[C@@H]4[C@H]3CC[C@@]21CC [Levonorgestrel] , I see its Difference listed as −0.21

Short answer for CC(C)n1c(/C=C/C(O)CC(O)CC(=O)O)c(-c2ccc(F)cc2)c2ccccc21 (stereo not drawn) [Fluvastatin (sodium)] : Difference was −0.22

Per the record, CC(C)(C)CC(=O)OCC(=O)[C@@]12OC(C)(C)O[C@@H]1C[C@H]1[C@@H]3CCC4=CC(=O)C=C[C@]4(C)[C@@]3(F)[C@@H](O)C[C@@]12C [Triamcinolone hexacetonide] has Difference of −0.20

# Difference (molecule: Cc1cc(Nc2ncc(Cl)c(Nc3ccccc3S(=O)(=O)C(C)C)n2)c(OC(C)C)cc1C1CCNCC1 [Ceritinib dihydrochloride] ) is −0.02

Input COc1cc2nc(N(C)CCCNC(=O)C3CCCO3)nc(N)c2cc1OC (stereo not drawn) [Alfuzosin (hydrochloride)] . Output Difference: −0.22
